# stated.conditions: in ethyl acetate, 298.15 K

{"query.smiles": "c1ccc(-n2c3ccccc3c3ccccc32)cc1", "solubility (mole fraction)": 0.14}

---

# stated.conditions: in n-propyl acetate, 308.15 K

{"query.smiles": "c1ccc(-n2c3ccccc3c3ccccc32)cc1", "solubility (mole fraction)": 0.16}

---

# stated.conditions: in n-butyl acetate, 323.15 K

{"query.smiles": "c1ccc(-n2c3ccccc3c3ccccc32)cc1", "solubility (mole fraction)": 0.355}

---

# stated.conditions: in isopentanol, 318.15 K
metric: solubility (mole fraction)

{"query.smiles": "c1ccc(-n2c3ccccc3c3ccccc32)cc1", "measurement": 0.0253}

---

# stated.conditions: in ethyl acetate, 313.15 K

{"query.smiles": "c1ccc(-n2c3ccccc3c3ccccc32)cc1", "solubility (mole fraction)": 0.238}

---

# stated.conditions: in n-pentanol, 308.15 K
metric: solubility (mole fraction)

{"query.smiles": "c1ccc(-n2c3ccccc3c3ccccc32)cc1", "metric": "solubility (mole fraction)", "measurement": 0.0212}

---

# stated.conditions: in ethyl lactate, 298.15 K

{"query.smiles": "c1ccc(-n2c3ccccc3c3ccccc32)cc1", "solubility (mole fraction)": 0.0502}

---

# stated.conditions: in sec-butanol, 313.15 K

{"query.smiles": "c1ccc(-n2c3ccccc3c3ccccc32)cc1", "solubility (mole fraction)": 0.0148}

---

# stated.conditions: in ethyl acetate, 293.15 K

{"query.smiles": "c1ccc(-n2c3ccccc3c3ccccc32)cc1", "solubility (mole fraction)": 0.125}

---

# stated.conditions: in isobutanol, 308.15 K
metric: solubility (mole fraction)

{"query.smiles": "c1ccc(-n2c3ccccc3c3ccccc32)cc1", "metric": "solubility (mole fraction)", "measurement": 0.00814}

---

# stated.conditions: in n-propyl acetate, 293.15 K

{"query.smiles": "c1ccc(-n2c3ccccc3c3ccccc32)cc1", "solubility (mole fraction)": 0.101}

---

# stated.conditions: in isopentanol, 303.15 K

{"query.smiles": "c1ccc(-n2c3ccccc3c3ccccc32)cc1", "solubility (mole fraction)": 0.0125}

---

# stated.conditions: in isobutyl acetate, 313.15 K
metric: solubility (mole fraction)

{"query.smiles": "c1ccc(-n2c3ccccc3c3ccccc32)cc1", "metric": "solubility (mole fraction)", "measurement": 0.271}
